# assay-target: T1, EBOV Mayinga strain cleaved GP ectodomain (Ebola virus, Mayinga strain, UniProt Q05320 33-650)
# T1 chain: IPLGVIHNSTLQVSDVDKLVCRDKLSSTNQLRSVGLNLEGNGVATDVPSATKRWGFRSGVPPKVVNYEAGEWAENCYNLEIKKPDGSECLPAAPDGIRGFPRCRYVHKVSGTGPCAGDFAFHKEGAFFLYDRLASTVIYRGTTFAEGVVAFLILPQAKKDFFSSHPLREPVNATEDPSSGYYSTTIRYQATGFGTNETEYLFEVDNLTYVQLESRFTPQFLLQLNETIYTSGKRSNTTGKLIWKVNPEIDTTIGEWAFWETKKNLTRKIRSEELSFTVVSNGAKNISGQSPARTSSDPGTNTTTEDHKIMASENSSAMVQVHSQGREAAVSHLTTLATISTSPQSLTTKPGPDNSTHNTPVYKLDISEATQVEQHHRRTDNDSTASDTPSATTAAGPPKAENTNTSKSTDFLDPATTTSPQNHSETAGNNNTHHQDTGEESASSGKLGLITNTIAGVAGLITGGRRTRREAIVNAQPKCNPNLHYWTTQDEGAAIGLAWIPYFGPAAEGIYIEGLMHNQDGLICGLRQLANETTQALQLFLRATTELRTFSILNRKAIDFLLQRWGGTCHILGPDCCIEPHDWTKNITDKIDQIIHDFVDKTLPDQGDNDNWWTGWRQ
# assay-notes: ELISA
measurement-name: EC50

Report EC50 for MR229 (antibody) chain 1: EVQLVESGGGLVKPGGSLRISCVTSGFTFGDYAMSWFRQAPGKGLEWVGFIRNKGYGGTIDYAASVKGRFTISRDDSKSIAYLQMNSLKTEDTAVYYCTGVRLHYDFWSGYDDDSFHIWGQGTM chain 2: DGVMTQSPLSLPVTPGQPASISCRSTQSLVHGDGDTYLYWFQQRPGQSPRRLIYKVSNRDSGVPDRFSGSGSGTDFTLKISRVEAEDVGVYYCMQSTHWPPTFGQ please.
> 1000 µg/mL

Proceed to MR209 (antibody) chain 1: QLQLQESGPGLVKPSETLSLTCTVAGGPITSNNYYWGWIRQSPGKGLEWIGSVYYSGNTYYNPSIKTRVTMSVDTSKSQFSLKLNSVTAADTAVYYCARQFRLLQFVEWLHHFDSWGPGN chain 2: SYVLTQPPSVSVAPGQTARIPCGGNDIANKRVHWYQQKPGQAPMLVVYDDGDRPSGIPERFSGSNSGNTATLTISRVEAGDEADYYCQVWENSSDLCVVFGGGTKLTVL
> 1000 µg/mL

Proceed to MR241 (antibody, V domains shown) VH: QVQLQESGPGLVKPSETLSLTCTVSGASISGNFWSWIRQPPGKGLEYIGYMSDIGTTNYSPSLKSRVTISVDTSKNQFSLNLTSVTAADAAVYYCARLVAVPGFFYHYYMDVWGEGTLVTVSS VL: DIVMTQSPSSVSASVGDRVTITCRASQGISGWLAWYQQKPGKAPKLLIYATSTLQSGVPSRFSGSESGTAFTLTISSLQPEDFATYYCQQANSFPLTFGGGTKVEIK
> 1000 µg/mL
